KM for assorted proteins
- experimental-system: Factor X, P00742
- Sequence (P00742 whole entry, looked up): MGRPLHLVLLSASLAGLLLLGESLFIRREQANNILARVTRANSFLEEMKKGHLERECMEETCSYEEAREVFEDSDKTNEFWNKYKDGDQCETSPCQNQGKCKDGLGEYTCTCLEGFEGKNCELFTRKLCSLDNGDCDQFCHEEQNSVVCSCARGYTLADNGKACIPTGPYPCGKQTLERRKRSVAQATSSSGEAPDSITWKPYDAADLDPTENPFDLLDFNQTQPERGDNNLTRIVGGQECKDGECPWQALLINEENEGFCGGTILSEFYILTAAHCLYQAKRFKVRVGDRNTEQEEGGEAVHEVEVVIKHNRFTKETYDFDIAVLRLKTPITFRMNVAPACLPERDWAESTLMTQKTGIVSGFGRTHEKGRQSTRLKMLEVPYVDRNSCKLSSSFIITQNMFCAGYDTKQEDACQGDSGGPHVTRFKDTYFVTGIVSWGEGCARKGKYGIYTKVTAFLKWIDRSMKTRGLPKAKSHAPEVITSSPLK
State just the number; it will be interpreted in µM.

INSERT INTO assay_data (protein, property_measured, measurement) VALUES
  ('FIXa-Y155F/T343R/R403E/E410N (protein) chain 1: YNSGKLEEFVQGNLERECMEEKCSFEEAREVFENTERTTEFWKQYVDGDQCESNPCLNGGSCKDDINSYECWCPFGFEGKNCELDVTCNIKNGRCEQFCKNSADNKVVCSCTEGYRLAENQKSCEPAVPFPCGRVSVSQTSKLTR chain 2: VVGGEDAKPGQFPWQVVLNGKVDAFCGGSIVNEKWIVTAAHCVETGVKITVVAGEHNIEETEHTEQKRNVIRIIPHHNYNAAINKYNHDIALLELDEPLVLNSYVTPICIADKEYTNIFLKFGSGYVSGWGRVFHKGRSALVLQYLRVPLVDRATCLRSTKFRIYNNMFCAGFHEGGRDSCQGDSGGPHVTEVEGTSFLTGIISWGEECAMKGKYGIYTKVSEYVNWIKNKTKLT', 'KM', 0.0446);

I am curious: what KM value has been reported for FIXa-R318Y/R338E/E410S (protein) chain 1: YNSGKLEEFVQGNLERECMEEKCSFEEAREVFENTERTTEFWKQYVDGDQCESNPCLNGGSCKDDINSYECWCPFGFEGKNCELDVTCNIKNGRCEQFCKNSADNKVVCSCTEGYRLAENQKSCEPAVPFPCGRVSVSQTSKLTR chain 2: VVGGEDAKPGQFPWQVVLNGKVDAFCGGSIVNEKWIVTAAHCVETGVKITVVAGEHNIEETEHTEQKRNVIRIIPHHNYNAAINKYNHDIALLELDEPLVLNSYVTPICIADKEYTNIFLKFGSGYVSGWGRVFHKGYSALVLQYLRVPLVDRATCLESTKFTIYNNMFCAGFHEGGRDSCQGDSGGPHVTEVEGTSFLTGIISWGEECAMKGKYGIYTKVSRYVNWIKSKTKLT ?
0.0164

Now give it for FIXa-K228N/R318Y/R338E/R403E/E410N (protein) chain 1: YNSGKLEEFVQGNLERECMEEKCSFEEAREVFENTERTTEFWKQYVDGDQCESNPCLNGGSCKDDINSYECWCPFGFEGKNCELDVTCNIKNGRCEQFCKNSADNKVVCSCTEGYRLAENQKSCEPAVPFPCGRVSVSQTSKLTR chain 2: VVGGEDAKPGQFPWQVVLNGKVDAFCGGSIVNEKWIVTAAHCVETGVNITVVAGEHNIEETEHTEQKRNVIRIIPHHNYNAAINKYNHDIALLELDEPLVLNSYVTPICIADKEYTNIFLKFGSGYVSGWGRVFHKGYSALVLQYLRVPLVDRATCLESTKFTIYNNMFCAGFHEGGRDSCQGDSGGPHVTEVEGTSFLTGIISWGEECAMKGKYGIYTKVSEYVNWIKNKTKLT too.
0.0361

meta.source: patent US20210238260
